Value source: patent US20210079074A1

- ASSAYED_SYSTEM: T1, recombinant MS4A4A soluble polypeptide JS1
- T1 construct: also called JS1.His; loop grafted antigen
- METHOD_NOTES: ELISA, 1 ug/ml antibody
- Description: Anti-MS4A4A antibodies of the present disclosure were tested for their ability to bind to the different recombinant MS4A4A soluble polypeptides, as described in Example 2, as follows. Nucleic acid encoding the VH and VL domains of humanized anti-MS4A4A antibodies of the present disclosure were cloned into pcDNA3.4 vector which contains either the human IgG1 heavy chain constant domain or human kappa constant domain. […]
Assign OD450 to each entry below.
// return just the number, without any unit appended

Field request: OD450 | item: anti-MS4A4A antibody 4A-306 (antibody, human IgG1, V domains shown, human IgG1/kappa) VH: QVQLVQSGAEVKKPGASVKVSCKASGYTFTNYWMQWVRQAPGQGLEWMGATHPGHGDTRYAQKFQGRVTMTRDTSTSTVYMELSSLRSEDTAVYYCAREEVYYGFRSYWYFDVWGRGTLVTVSS VL: DIQMTQSPSSLSASVGDRVTITCRASESVDNYGVSFMNWYQQKPGKAPKLLIYGASNQGSGVPSRFSGSGSGTDFTLTISSLQPEDFATYYCQQSKEVPPTFGGGTKVEIK
0.12

Field request: OD450 | item: anti-MS4A4A antibody 4A-332 (antibody, human IgG1, V domains shown, humanized 4A-21; human IgG1/kappa) VH: QVQLVQSGSELKKPGASVKVSCKASGYIFTSYGLSWVRQAPGQGLEWMGWINTYSGVPTYAQGFTGRFVFSLDTSVSTAYLQISSLKAEDTAVYYCARSLVDYWGQGTLVTVSS VL: DVVMTQSPLSLPVTLGQPASISCKSSQSLLYSDGKTYLSWFQQRPGQSPRRLIYLVSKLDSGVPDRFSGSGSGTDFTLKISRVEAEDVGVYYCWQGIDFHQTFGGGTKVEIK
1.91

Field request: OD450 | item: anti-MS4A4A antibody 4A-302 (antibody, human IgG1, V domains shown, human IgG1/kappa) VH: QVQLVQSGAEVKKPGASVKVSCKASGYTFTNYWMQWVRQAPGQGLEWMGATHPGHGDTRYAQKFQGRVTMTRDTSTSTVYMELSSLRSEDTAVYYCAREEVYYGFRSYWYFDVWGRGTLVTVSS VL: EIVLTQSPATLSLSPGERATLSCRASESVDNYGVSFMNWYQQKPGQAPRLLIYGASNQGSGIPARFSGSGSGTDFTLTISSLEPEDFAVYYCQQSKEVPPTFGGGTKVEIK
0.127
